test system: HCT-116; assay: Antiproliferative activity against human HCT116 cells; assay type: functional, cell-based
endpoint_name: pIC50
For clarity, pIC50 is expressed as the negative log10 of concentration in mol/L.

given_smiles: CN(C)CCc1ccc(Nc2ncc(Cl)c(-c3ccc4[nH]ccc4c3)n2)cc1
target: HCT-116
pIC50: 6.49

given_smiles: CC(C)(N)c1ccc(-c2nc(Nc3ccc(CCN4CCOCC4)cc3)ncc2Cl)cc1
target: HCT-116
pIC50: 5.49

given_smiles: CC(C)(N)c1ccc(-c2nc(Nc3ccc(CCO)cc3)ncc2Cl)cc1
target: HCT-116
pIC50: 5.80

given_smiles: CN(C)CCc1ccc(Nc2ncc(Cl)c(-c3ccc4cc[nH]c4c3)n2)cc1
target: HCT-116
pIC50: 6.35

given_smiles: CN(C)CCc1ccc(Nc2ncc(Cl)c(-c3c[nH]c4ccccc34)n2)cc1
target: HCT-116
pIC50: 7.08

Need pIC50 of CN(C)CCc1ccc(Nc2ncc(Cl)c(-c3ccc(C(C)(C)N)cc3)n2)cc1 , thanks. 5.77

Then this compound: CN1CCN(CCc2ccc(Nc3ncc(Cl)c(-c4c[nH]c5ccccc45)n3)cc2)CC1 5.52

Then this compound: CN(C)CCc1ccc(Nc2ncc(Cl)c(-c3cccc4cc[nH]c34)n2)cc1 6.33

----------
molecular target: UniProt P35968
Sequence (P35968 whole entry): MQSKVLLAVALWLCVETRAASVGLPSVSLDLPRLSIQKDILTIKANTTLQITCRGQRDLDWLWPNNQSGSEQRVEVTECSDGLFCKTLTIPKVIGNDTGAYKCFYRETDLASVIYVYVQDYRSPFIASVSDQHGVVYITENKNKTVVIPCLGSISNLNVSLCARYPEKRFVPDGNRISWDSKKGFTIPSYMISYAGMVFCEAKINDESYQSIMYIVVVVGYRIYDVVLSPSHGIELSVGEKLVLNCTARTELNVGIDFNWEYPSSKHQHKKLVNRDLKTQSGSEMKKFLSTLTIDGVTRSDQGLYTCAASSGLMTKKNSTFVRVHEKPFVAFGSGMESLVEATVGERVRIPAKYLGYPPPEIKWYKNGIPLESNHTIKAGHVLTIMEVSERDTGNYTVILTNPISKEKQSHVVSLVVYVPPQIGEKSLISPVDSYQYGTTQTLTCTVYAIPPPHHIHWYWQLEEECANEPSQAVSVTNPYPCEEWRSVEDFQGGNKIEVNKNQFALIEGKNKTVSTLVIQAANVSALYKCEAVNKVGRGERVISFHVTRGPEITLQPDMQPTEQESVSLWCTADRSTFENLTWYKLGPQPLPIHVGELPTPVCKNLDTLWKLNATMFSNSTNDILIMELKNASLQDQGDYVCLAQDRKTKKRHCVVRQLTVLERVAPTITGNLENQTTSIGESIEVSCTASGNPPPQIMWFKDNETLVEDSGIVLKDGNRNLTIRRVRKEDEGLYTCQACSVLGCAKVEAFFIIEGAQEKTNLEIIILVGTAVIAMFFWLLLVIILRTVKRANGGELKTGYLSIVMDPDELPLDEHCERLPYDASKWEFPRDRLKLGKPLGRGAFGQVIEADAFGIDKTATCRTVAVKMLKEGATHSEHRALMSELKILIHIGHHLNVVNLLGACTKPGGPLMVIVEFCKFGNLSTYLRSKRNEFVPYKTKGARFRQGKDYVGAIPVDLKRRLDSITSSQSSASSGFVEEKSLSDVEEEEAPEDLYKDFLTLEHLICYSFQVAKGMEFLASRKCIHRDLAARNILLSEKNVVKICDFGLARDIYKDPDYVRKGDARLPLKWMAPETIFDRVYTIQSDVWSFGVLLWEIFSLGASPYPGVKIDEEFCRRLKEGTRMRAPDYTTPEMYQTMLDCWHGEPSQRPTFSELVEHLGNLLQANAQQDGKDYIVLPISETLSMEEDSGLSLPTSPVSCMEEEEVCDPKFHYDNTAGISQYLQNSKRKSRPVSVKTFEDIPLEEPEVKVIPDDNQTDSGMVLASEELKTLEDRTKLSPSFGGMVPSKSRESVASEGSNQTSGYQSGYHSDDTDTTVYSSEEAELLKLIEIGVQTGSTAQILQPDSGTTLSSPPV
endpoint_name: log10 of IC50 (log10 of the value in nM)
Hello, just confirming the data are log10 of IC50 with units of nM.

given_smiles: CN1CCN(CCc2ccc(Nc3ncc(Cl)c(-c4ccc(C(C)(C)N)cc4)n3)cc2)CC1
target: UniProt P35968
endpoint_name: log10 of IC50
numeric_result: 1.88

given_smiles: CC(C)(N)c1ccc(-c2nc(Nc3ccc(CCO)cc3)ncc2Cl)cc1
target: UniProt P35968
endpoint_name: log10 of IC50
numeric_result: 1.84

given_smiles: CN(C)CCc1ccc(Nc2ncc(Cl)c(-c3cccs3)n2)cc1
target: UniProt P35968
endpoint_name: log10 of IC50
numeric_result: 2.20

given_smiles: CC(C)(N)c1ccc(-c2nc(Nc3ccc(CCN4CCCC4)cc3)ncc2Cl)cc1
target: UniProt P35968
endpoint_name: log10 of IC50
numeric_result: 1.41

given_smiles: CN(C)CCc1ccc(Nc2ncc(Cl)c(-c3n[nH]c4ccccc34)n2)cc1
target: UniProt P35968
endpoint_name: log10 of IC50
numeric_result: 2.50

Form field - read-out: log10 of IC50; system: UniProt P35968; submitted item: CN(C)CCc1ccc(Nc2ncc(Cl)c(-c3ccc4[nH]ccc4c3)n2)cc1 2.01

Then this molecule: Cc1nc(C)c(-c2nc(Nc3ccc(CCN(C)C)cc3)ncc2Cl)s1 2.90
